ASSAY_PROCEDURE: Solubility at room temperature (HPLC isocratic method)
Assay type: physicochemical
COND: aqueous with cosolvent or surfactant or cyclodextrin, thermodynamic from solid; 20% HP-βCD, pH adjusted with 0.1 N HCl to about pH 3, room temperature; read-out: Solubility
MEASURED_ATTRIBUTE: solubility (mg/mL)
# value in mg/mL; strip the unit string

Supply measured solubility of CNC(=O)N1CCN(Cc2ccnc(Nc3ncc(C#N)s3)c2)CC1.CS(=O)(=O)O [mesylate salt (Form A)] in your reply.
40.7
